tested on: SW403; test: Cell proliferation assay (CellTiter-Glo); assay type: cell-based; conditions: Homo sapiens, SW-403; Colon; 72 hours, 0.5% fetal bovine serum; read-out: antiproliferative activity IC50, SW403
pIC50: −log10 of the molar value.
pIC50 by entry:

CNc1ccc(-c2nc(N3CCOCC3)c3sc(CN(C)c4ncc(C(=O)NO)cn4)cc3n2)cn1 | > 8.00
CN(Cc1cc2nc(-c3ccc(N)cc3)nc(N3CCOCC3)c2s1)c1ncc(C(=O)NO)cn1 | > 8.00
COc1ccc(-c2nc(N3CCOCC3)c3sc(CN(C)c4ncc(C(=O)NO)cn4)cc3n2)cn1 | > 8.00

What measured pIC50 goes with CS(=O)(=O)N1CCN(Cc2cc3nc(-c4cccc5[nH]ncc45)nc(N4CCOCC4)c3s2)CC1 [GDC-0941, reference compound] ?
5.00 to 6.00

----------
biological target: PI3Kβ (p110β/p85α) (Homo sapiens); construct: His (N); test: PI3Kβ ADP-Glo assay; conditions: 20 μM PIP2, 10 μM ATP, 90 minutes
Sequence (P42338 whole entry): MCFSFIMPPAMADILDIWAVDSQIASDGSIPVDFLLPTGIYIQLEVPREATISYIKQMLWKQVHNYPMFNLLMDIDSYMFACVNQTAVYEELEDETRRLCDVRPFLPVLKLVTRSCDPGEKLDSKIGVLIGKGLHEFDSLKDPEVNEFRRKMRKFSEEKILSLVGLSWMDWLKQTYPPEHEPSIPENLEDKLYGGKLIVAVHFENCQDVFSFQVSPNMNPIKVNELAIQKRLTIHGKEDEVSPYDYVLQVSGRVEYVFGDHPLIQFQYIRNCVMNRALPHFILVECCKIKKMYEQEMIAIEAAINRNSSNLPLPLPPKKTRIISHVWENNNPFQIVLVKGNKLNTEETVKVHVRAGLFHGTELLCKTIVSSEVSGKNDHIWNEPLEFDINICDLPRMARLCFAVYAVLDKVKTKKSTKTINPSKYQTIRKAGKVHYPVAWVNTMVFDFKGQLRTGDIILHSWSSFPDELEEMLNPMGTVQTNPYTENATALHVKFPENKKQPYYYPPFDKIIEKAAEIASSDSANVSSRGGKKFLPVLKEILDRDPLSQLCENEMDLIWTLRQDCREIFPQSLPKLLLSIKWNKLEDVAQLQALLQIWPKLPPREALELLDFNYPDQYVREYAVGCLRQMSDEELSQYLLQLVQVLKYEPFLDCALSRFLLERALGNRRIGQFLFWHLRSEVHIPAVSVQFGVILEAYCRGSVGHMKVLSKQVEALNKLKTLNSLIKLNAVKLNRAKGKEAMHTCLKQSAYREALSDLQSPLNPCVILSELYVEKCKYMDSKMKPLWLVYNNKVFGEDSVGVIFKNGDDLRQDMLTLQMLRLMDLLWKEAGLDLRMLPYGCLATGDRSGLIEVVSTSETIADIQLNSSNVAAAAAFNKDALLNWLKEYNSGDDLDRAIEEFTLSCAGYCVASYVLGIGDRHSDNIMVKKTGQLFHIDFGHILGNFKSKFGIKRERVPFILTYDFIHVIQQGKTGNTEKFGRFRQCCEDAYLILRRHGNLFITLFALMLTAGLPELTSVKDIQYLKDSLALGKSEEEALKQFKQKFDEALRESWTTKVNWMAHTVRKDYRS
Sequence (P27986 whole entry partner): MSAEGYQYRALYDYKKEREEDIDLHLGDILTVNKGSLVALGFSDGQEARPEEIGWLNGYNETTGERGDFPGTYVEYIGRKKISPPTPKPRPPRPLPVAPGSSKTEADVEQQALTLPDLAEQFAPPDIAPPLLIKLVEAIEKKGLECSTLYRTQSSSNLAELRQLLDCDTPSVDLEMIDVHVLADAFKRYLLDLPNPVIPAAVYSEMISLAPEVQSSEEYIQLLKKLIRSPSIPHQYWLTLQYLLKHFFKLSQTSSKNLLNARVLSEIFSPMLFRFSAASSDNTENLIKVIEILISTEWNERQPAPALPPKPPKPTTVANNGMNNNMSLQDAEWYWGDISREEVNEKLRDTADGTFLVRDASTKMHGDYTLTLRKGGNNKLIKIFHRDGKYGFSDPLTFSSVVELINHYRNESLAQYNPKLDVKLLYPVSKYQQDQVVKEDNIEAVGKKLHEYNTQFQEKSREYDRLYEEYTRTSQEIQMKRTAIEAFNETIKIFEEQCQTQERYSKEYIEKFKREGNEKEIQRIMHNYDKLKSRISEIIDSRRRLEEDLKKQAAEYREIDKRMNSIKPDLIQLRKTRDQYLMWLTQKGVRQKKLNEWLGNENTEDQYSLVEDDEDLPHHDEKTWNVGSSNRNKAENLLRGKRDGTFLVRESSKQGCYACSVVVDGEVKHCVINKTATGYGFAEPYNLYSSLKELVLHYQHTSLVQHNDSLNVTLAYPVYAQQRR
pIC50: −log10 of the molar value.
Observable: pIC50

Study these solved cases before continuing.
O=C(NO)c1cnc(NCc2cc3nc(-c4cccc5[nH]ncc45)nc(N4CCOCC4)c3s2)nc1 [Compound 53] | > 7.00
CNc1ccc(-c2nc(N3CCOCC3)c3sc(CN(C)c4ncc(C(=O)NO)cn4)cc3n2)cn1 [Compound 111] | 6.00 to 7.00
O=C(NO)c1cnc(N2CCN(Cc3cc4nc(-c5cccc6[nH]ncc56)nc(N5CCOCC5)c4s3)CC2)nc1 [Compound 14] | > 7.00

What measured pIC50 goes with CN(Cc1cc2nc(-c3cccc4[nH]ncc34)nc(N3CCOCC3)c2s1)c1ncc(C(=O)NO)cn1 [Compound 54] ?
> 7.00

// next record O=C(NO)c1cnc(N(CCO)Cc2cc3nc(-c4cccc5[nH]ncc45)nc(N4CCOCC4)c3s2)nc1 [Compound 86]
> 7.00

----------
IC50 by entry:
target: PI3Kα (p110α/p85α) (Homo sapiens, UniProt P42336); construct: GST (N); test: PI3Kα ADP-Glo assay; details: 20 μM PIP2, 10 μM ATP, 30 minutes
Sequence (P42336 whole entry, one chain of several): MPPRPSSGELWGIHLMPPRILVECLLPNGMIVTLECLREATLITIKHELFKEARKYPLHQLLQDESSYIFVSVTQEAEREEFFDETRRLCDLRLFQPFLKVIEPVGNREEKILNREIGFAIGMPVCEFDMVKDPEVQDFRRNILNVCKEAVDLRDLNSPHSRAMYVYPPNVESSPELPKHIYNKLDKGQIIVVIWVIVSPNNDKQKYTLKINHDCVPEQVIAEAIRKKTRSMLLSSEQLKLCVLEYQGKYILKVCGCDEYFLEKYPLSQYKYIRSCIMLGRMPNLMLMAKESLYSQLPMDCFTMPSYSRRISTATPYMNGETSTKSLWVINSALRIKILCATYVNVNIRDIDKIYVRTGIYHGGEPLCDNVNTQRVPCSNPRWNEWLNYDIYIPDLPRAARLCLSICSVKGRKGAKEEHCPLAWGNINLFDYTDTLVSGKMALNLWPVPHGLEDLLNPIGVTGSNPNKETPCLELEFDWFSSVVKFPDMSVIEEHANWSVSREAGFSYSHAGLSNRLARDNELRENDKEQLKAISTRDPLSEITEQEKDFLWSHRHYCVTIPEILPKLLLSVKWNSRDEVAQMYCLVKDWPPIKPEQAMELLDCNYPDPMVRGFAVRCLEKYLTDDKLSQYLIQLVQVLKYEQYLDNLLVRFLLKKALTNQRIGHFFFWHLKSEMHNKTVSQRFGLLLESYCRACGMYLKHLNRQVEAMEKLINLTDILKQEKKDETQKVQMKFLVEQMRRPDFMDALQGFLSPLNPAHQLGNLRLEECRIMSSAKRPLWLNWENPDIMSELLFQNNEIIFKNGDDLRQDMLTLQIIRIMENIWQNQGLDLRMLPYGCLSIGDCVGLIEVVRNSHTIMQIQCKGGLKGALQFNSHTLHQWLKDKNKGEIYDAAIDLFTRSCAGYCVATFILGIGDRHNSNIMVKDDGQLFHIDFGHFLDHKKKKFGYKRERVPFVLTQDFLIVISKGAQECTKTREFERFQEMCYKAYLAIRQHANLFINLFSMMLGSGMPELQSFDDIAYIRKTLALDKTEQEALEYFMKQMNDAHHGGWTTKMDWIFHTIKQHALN

CN(Cc1cc2nc(-c3cccc4[nH]ccc34)nc(N3CCOCC3)c2s1)c1ncc(C(=O)NO)cn1 [Compound 176] | 100 to 1000 nM
COC(=O)CN(Cc1cc2nc(-c3cccc4[nH]ncc34)nc(N3CCOCC3)c2s1)c1ncc(C(=O)NO)cn1 [Compound 89] | < 100 nM
CC(C)CN(Cc1cc2nc(-c3cccc4[nH]ncc34)nc(N3CCOCC3)c2s1)c1ncc(C(=O)NO)cn1 [Compound 93] | 100 to 1000 nM
CCOc1ccc(-c2nc(N3CCOCC3)c3sc(CN(C)c4ncc(C(=O)NO)cn4)cc3n2)cn1 [Compound 255] | < 100 nM

What measured IC50 goes with O=C(CCCCNc1cc2nc(-c3cccc4[nH]ncc34)nc(N3CCOCC3)c2s1)NO [Compound 18] ?
100 to 1000 nM

// next record CC(C)(C)CN(Cc1cc2nc(-c3cccc4[nH]ncc34)nc(N3CCOCC3)c2s1)c1ncc(C(=O)NO)cn1 [Compound 83]
100 to 1000 nM

// next record CN(Cc1cc2nc(-c3ccccc3CO)nc(N3CCOCC3)c2s1)c1ncc(C(=O)NO)cn1 [Compound 141]
100 to 1000 nM

// next record CN(Cc1cc2nc(-c3ccc(N4CCCC4)cc3)nc(N3CCOCC3)c2s1)c1ncc(C(=O)NO)cn1 [Compound 155]
> 10000 nM

// next record CS(=O)(=O)N1CCN(Cc2cc3nc(-c4cccc5[nH]ncc45)nc(NCCCCCC(=O)NO)c3s2)CC1 [Compound 35]
> 10000 nM

----------
Observable: melting point

Study these solved cases before continuing.
O=C(CCCCNCc1cc2nc(-c3cccc4[nH]ncc34)nc(N3CCOCC3)c2s1)NO | 145 to 147 °C
CN(Cc1cc2nc(-c3ccc(Cl)cc3)nc(N3CCOCC3)c2s1)c1ncc(C(=O)NO)cn1 | 153 °C
O=C(NO)c1cnc(N(CCO)Cc2cc3nc(-c4cccc5[nH]ncc45)nc(N4CCOCC4)c3s2)nc1 | 190 to 194 °C

Please find the next molecule below.
What measured melting point goes with CNC(=O)c1cccc(-c2nc(N3CCOCC3)c3sc(CN(C)c4ncc(C(=O)NO)cn4)cc3n2)c1 ?
215 to 217 °C

----------
pIC50 by entry:
tested on: H2122; assay: Cell proliferation assay (CellTiter-Glo); type: cell-based; details: Homo sapiens, NCI-H2122; NSCLC; 72 hours, 0.5% fetal bovine serum; read-out: antiproliferative activity IC50, H2122
pIC50: −log10 of the molar value.

Study these solved cases before continuing.
COc1ccc(-c2nc(N3CCOCC3)c3sc(CN(C)c4ncc(C(=O)NO)cn4)cc3n2)cn1 | > 8.00
C[C@H](O)c1cccc(-c2nc(N3CCOCC3)c3sc(CN(C)c4ncc(C(=O)NO)cn4)cc3n2)c1 | 7.00 to 8.00

Find pIC50 (H2122) for the entry CN(Cc1cc2nc(-c3ccc(N)cc3Cl)nc(N3CCOCC3)c2s1)c1ncc(C(=O)NO)cn1
> 8.00

// next record CN(Cc1cc2nc(-c3cc(O)ccc3F)nc(N3CCOCC3)c2s1)c1ncc(C(=O)NO)cn1
7.00 to 8.00

// next record CC(O)c1cccc(-c2nc(N3CCOCC3)c3sc(CN(C)c4ncc(C(=O)NO)cn4)cc3n2)c1 (stereo not drawn)
> 8.00

// next record CNc1ccc(-c2nc(N3CCOCC3)c3sc(C(=O)NCC4CCN(c5ncc(C(=O)NO)cn5)CC4)cc3n2)cn1
6.00 to 7.00

----------
system: HDACs (HeLa cell nuclear extracts); experiment: HDAC enzymatic activity, Biomol Color de Lys system; assay type: biochemical; conditions: 1 hour, 25° C.
pIC50: −log10 of the molar value.
pIC50 by entry:

Study these solved cases before continuing.
CN(Cc1cc2nc(-c3cnc(C(N)=O)nc3)nc(N3CCOCC3)c2s1)c1ncc(C(=O)NO)cn1 | > 7.00
Cn1cc(CNc2cc3nc(-c4cccc5[nH]ncc45)nc(N4CCOCC4)c3s2)c2cc(C(=O)NO)ccc21 | 5.00 to 6.00
C/C(=N/O)c1cccc(-c2nc(N3CCOCC3)c3sc(CN(C)c4ncc(C(=O)NO)cn4)cc3n2)c1 | > 7.00

Find pIC50 (HDACs (HeLa cell nuclear extracts)) for the entry CNc1ccc(-c2nc(N3CCOCC3)c3sc(CN(CCO)c4ncc(C(=O)NO)cn4)cc3n2)cn1
> 7.00

----------
melting point by entry:

Study these solved cases before continuing.
CS(=O)(=O)N1CCN(Cc2cc3nc(-c4cccc5nn(CCCCCC(=O)NO)cc45)nc(N4CCOCC4)c3s2)CC1 [Compound 8] | 124 to 125 °C
CN(Cc1cc2nc(-c3cc(F)c(N)c(F)c3)nc(N3CCOCC3)c2s1)c1ncc(C(=O)NO)cn1 [Compound 282] | 190 to 193 °C

What measured melting point goes with CN(Cc1cc2nc(-c3cccc4[nH]ncc34)nc(Nc3ccccc3)c2s1)c1ncc(C(=O)NO)cn1 [Compound 164] ?
232 to 235 °C

// next record CCN(CC)c1ccc(-c2nc(N3CCOCC3)c3sc(CN(C)c4ncc(C(=O)NO)cn4)cc3n2)cc1 [Compound 154]
192 to 196 °C

----------
System: HDACs (HeLa cell nuclear extracts)
Experiment: HDAC enzymatic activity, Biomol Color de Lys system
Type: biochemical
Conditions: 1 hour, 25° C.
Description: (E) an In Vitro Assay which Determines the Ability of a Test Compound to Inhibit HDAC Enzymatic Activity. HDAC inhibitory activity was assessed using the Biomol Color de Lys system (AK-500, Biomol, Plymouth Meeting, Pa.). […] Relative enzyme activity was measured in the WALLAC Victor II 1420 microplate reader as fluorescence intensity (excitation: 350-380 nm; emission: 440-460 nm). Data were analyzed using GraphPad Prism (v4.0a) with a sigmoidal dose response curve fitting for IC50 calculation.
pIC50: −log10 of the molar value.
pIC50 by entry:

Study these solved cases before continuing.
CN(Cc1cc2nc(-c3ccc([N+](=O)[O-])c(O)c3)nc(N3CCOCC3)c2s1)c1ncc(C(=O)NO)cn1 | > 7.00
COc1ncc(-c2nc(N3CCOCC3)c3sc(C(C)(C)N(C)c4ncc(C(=O)NO)cn4)cc3n2)cn1 | > 7.00
CS(=O)(=O)N1CCN(Cc2cc3nc(-c4cccc5nn(CCCCCC(=O)NO)cc45)nc(N4CCOCC4)c3s2)CC1 | > 7.00
CN(Cc1cc2nc(-c3ccc4c(c3)NC(=O)CO4)nc(N3CCOCC3)c2s1)c1ncc(C(=O)NO)cn1 | > 7.00
CN(Cc1cc2nc(-c3ccc(CO)cc3)nc(N3CCOCC3)c2s1)c1ncc(C(=O)NO)cn1 | > 7.00
CN(CCCCCC(=O)NO)Cc1cc2nc(-c3cccc4[nH]ncc34)nc(N3CCOCC3)c2s1 | > 7.00

What measured pIC50 goes with Cc1c(CN(C)c2ncc(C(=O)NO)cn2)sc2c(N3CCOCC3)nc(-c3cccc4[nH]ncc34)nc12 ?
> 7.00
